Target: T1, MS2 bacteriophage coat protein (MS2 bacteriophage, UniProt P03612 2-130)
T1 sequence: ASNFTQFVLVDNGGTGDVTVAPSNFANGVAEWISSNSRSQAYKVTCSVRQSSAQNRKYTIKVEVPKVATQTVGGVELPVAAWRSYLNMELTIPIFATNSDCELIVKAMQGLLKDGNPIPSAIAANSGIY
Test: SPR (Biacore T200), IgG captured on anti-human IgG Fc, MS2 antigen flowed over
pKd: −log10 of the molar value.
property_label: pKd

INSERT INTO assay_data (binder, property_label, numeric_result) VALUES
  ('APE1027 (antibody, V domains shown) VH: EVQLVESGGGLVQPGGSLILSCVASGFTFSSYAMSWVRQAPGKGLEWVCTISTGGGYTYSPDSVKGRFTCSRDNSKNTLYLQMNSLRAEDTAVYYCARQGDFGDWYFDVWGAGTTVTVSS VL: DVVLTQSPLSLAVLLGQPASISCRSSESLVHTNGNTYLHWYQQRPGQSPRLLIYKVSNRFSGVPDRFSGSGSGTDFTLKISRVEAEDVGVYFCSQSTRVPWTFGGGTKLEIK', 'pKd', 9.06),
  ('APE849 (antibody, V domains shown) VH: EVQLLESGGGLVQPGGSLRLSCAASGFTFSSYAMSWVRQAPGKGLEWVSTISTGGGYTYSPDSVKGRFTISRDNSKNTLYLQMNSLRAEDTAVYYCARQGDFGDWYFDVWGAGTTVTVSS VL: DVVMTQSPLSLPVTLGQPASISCRSSESLVHTNGNTYLHWYQQRPGQSPRLLIYKVSNRFSGVPDRFSGSGSGTDFTLKISRVEAEDVGVYFCSQSTRVPWTFGGGTKLEIK', 'pKd', 8.70),
  ('APE565 (antibody, V domains shown) VH: EVQLLESGGGLVQPGGSLRLSCAASGFTFSSYAMSWVRQAPGKGLEWVCTISTGGGYTYFPDSVKGRFTCSRDNSKNTLYLQMNSLRAEDTAVYYCARQGDFGDWYFDVWGAGTTVTVSS VL: DVVMTQSPLSLPVTLGQPASISCRSSQSLVHSNGNTYLHWYQQRPGQSPRLLIYKVSNRFSGVPDRFSGSGSGTDFTLKISRVEAEDVGVYFCSQSTHVPWTFGGGTKLEIK', 'pKd', 8.15),
  ('APE830 (antibody, V domains shown) VH: EVQLLESGGGLVQPGGSLRLSCVASGFTFSSYAMSWVRQAPGKGLEWVSTISTGGGYTYFPDSVKGRFTISRDNSKNTLYLQMNSLRAEDTAVYYCARQGDFGDWYFDVWGAGTTVTVSS VL: DVVMTQSPLSLPVTLGQPASISCRSSESLVHTNGNTYLHWYQQRPGQSPRLLIYKVSNRFSGVPDRFSGSGSGTDFTLKISRVEAEDVGVYFCSQSTRVPWTFGGGTKLEIK', 'pKd', 8.80);
